target: synthetic Aβ protofibrils (Aβ1-42-derived protofibrils) (UniProt P05067 672-713); assay: Octet BLI (Protein G sensor); PF 14.7 nM
Sequence (P05067 672-713): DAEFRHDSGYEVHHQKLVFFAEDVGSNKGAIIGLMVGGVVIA
pKd: −log10 of the molar value.
Measure: pKd

Would you please look over these solved cases?
• B90 (hybridoma-purified mAb) (antibody, V domains shown) VH: QVQLVESGGGVVQPGRSLRLSCAASGFTFSSYGMHWVRQAPGKGLEWVAIIWYDGSKKYYADSVKGRFTISRDNSKNTLYLQMNSLRVEDTAVYYCARRGRVGATRDYYYYSMDVWGQGTTVTVSS VL: AIQMTQSPSSLSASVGDRVTITCRASQGIRNDLGWFHQKPGKAPKLLIYAASSLQSGVPSRFSGSGSGTDFTLTISSLQPEDFATYYCLQDYVYPWTFGQGTKVEIK = > 12.00
• B54 (hybridoma-purified mAb) (antibody, V domains shown) VH: QVQLVESGGGVVQPGRSLRLSCAASGFTFSTYGMHWVRQAPGKGLEWVALIWYDGSKKYYADSVQGRFTISRDSSKNTLYLQMNSLRVEDTAVYYCARRGRVGVTRNYYYYGMDVWGQGTTVTVSS VL: AIQMTQSPSSLSASVGDRVTITCRTSQDIRNDLGWFQQKPGKAPKFLIYPASSLQGGVPSRFSGSGSGTDFILTISSLQPEDFATYYCLQDYNFPWTFGEGTKVEIK = > 12.00
• B51 (hybridoma-purified mAb) (antibody, V domains shown) VH: QVQLVESGGGVVQPGRSLRLSCAASGFTFSSHGMHWVRQAPGKGLEWVAVIWYDGSNKNYADSVKGRFTISRDNSKNTLYLQMNSLRAEDTAVYYCARRGRVGVTRNYYYYGMDVWGQGTTVTVSS VL: AIQMTQSPSSLSASVGDRVTITCRASQGIRNDLGWFQQKPVKAPKLLIYPASSLQSGVPSRFSGSGSGTDFTLTISSLQPEDFATYYCLQDYNYPWTFGQGTKVEIK = > 12.00
• B28 (hybridoma-purified mAb) (antibody, V domains shown) VH: QVQLVESGGGVVQPGRSVRLSCAATGFTFSSYGMHWVRQAPGKGLEWVAVIWFDGSNEYYADSVRGRFTISRDNSKNTLYLQMNSLRAEDTAVYYCARRGRVGVTRNYYYYNMDVWGQGTTVTVSS VL: AIQMTQSPSSLSASVGDRVTITCRASQGIRNDLGWFQQKPGKAPKLLIYPASSLQSGVPSRFSGSGSDTDFTLTISSLQPEDFATYYCLQDYNFPFTFGPGTKVDIK = 7.66

Could you now look at the following binder, please?
Given B73 (hybridoma-purified mAb) (antibody, V domains shown) VH: QLQLQMSGPGLVKPSETLSLTCTVSGGSISSSSYYWGWIRQSPGKGLEWIGSIYYSGRTYYNPSLKSRVTISVDTSKNQFSLKLSSVTAADTAMYYCARRSSGRPYYWGQGTLVTVSS VL: QAVVTQESALTTSPGGTVILTCRSSTGAVTTSNYANWVQEKPDHLFTGLIGETNNRAPGVPVRFSGSLIGDKAALTITGAQTEDDAMYFCALWYSTHWVFGGGTKLTVL , state its recorded pKd.
> 12.00
